Give inhibition at 0.03 µM for every item shown.
- study_target: PAF specific receptor binding site, human platelet membranes (Homo sapiens, UniProt P25105)
- Construct: from tissue; host or cells: human platelets (plasma membrane suspension)
- Sequence (P25105 whole entry): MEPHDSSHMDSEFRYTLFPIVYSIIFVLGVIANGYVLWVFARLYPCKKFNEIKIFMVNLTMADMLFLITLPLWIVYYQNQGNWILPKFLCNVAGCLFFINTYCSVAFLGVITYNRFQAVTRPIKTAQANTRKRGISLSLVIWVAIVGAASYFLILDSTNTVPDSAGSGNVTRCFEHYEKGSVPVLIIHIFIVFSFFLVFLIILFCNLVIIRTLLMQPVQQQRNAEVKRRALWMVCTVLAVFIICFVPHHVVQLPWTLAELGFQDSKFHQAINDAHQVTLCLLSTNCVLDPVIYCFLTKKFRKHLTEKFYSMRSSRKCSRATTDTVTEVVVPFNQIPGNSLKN
- assay_remarks: Inhibition of [3H] N-methylcarbamoyl-PAF binding to human platelet membranes
- assay_conditions: 30 nM, trans configuration
A number alone suffices; assume %.

Request the reported inhibition at 0.03 µM associated with CCCOc1c(OCC(C)=O)cc([C@@H]2CC[C@@H](c3cnc(OC)c(OC)n3)O2)cc1S(=O)(=O)CCC (relative stereo)
100

Returns the measured inhibition at 0.03 µM for the input compound. Input: CCCOc1c(OCCCO)cc([C@@H]2CC[C@@H](c3cnc(OC)c(OC)c3)O2)cc1S(=O)(=O)CC(C)O (stereo partly shown)
75

So what's the measured inhibition at 0.03 µM for this one? CCCOc1c(OCC(C)=O)cc([C@@H]2CC[C@@H](c3cnc(OC)c(OC)c3)O2)cc1S(=O)(=O)CC(C)O (stereo partly shown)
81

What does the record list as inhibition at 0.03 µM for CCCOc1c(OCC(C)=O)cc([C@@H]2CC[C@@H](c3cnc(OC)c(OC)n3)O2)cc1S(=O)(=O)CC(C)O (stereo partly shown) ?
81

Report inhibition at 0.03 µM for CCCOc1c(OCC(C)=O)cc([C@H]2CC[C@H](c3cccnc3)O2)cc1S(=O)(=O)CCC (relative stereo) please.
66

Give its inhibition at 0.03 µM value. Item: CCCOc1c(OCCO)cc([C@@H]2CC[C@@H](c3cnc(OC)c(OC)c3)O2)cc1S(=O)(=O)CC(C)O (stereo partly shown)
58

# query: inhibition at 0.03 µM of entry CCCOc1c(OCCCO)cc([C@@H]2CC[C@@H](c3cnc(OC)c(OC)c3)O2)cc1S(=O)(=O)CC(C)=O (relative stereo)
87

Entry CCCOc1c(OCC(C)=O)cc([C@@H]2CC[C@@H](c3cnc(OC)c(OC)c3)O2)cc1S(=O)(=O)CCC (relative stereo) has what inhibition at 0.03 µM?
93

// inhibition at 0.03 µM lookup, key: CCCOc1c(OCC(C)O)cc([C@@H]2CC[C@@H](c3cnc(OC)c(OC)n3)O2)cc1S(=O)(=O)CCC (stereo partly shown)
100

// inhibition at 0.03 µM lookup, key: CCCOc1c(OCC(C)=O)cc([C@@H]2CC[C@@H](c3cnc(OC)c(OC)c3)O2)cc1S(=O)(=O)CCCO (relative stereo)
66

Values compiled from patent US5011847A.
